# assayedTarget: δ opioid receptor (DOR) (Homo sapiens, UniProt P41143)
# Construct: expressed in transfected cells; host or cells: CHO (hDOR-CHO), membrane preparation
# Sequence (P41143 whole entry): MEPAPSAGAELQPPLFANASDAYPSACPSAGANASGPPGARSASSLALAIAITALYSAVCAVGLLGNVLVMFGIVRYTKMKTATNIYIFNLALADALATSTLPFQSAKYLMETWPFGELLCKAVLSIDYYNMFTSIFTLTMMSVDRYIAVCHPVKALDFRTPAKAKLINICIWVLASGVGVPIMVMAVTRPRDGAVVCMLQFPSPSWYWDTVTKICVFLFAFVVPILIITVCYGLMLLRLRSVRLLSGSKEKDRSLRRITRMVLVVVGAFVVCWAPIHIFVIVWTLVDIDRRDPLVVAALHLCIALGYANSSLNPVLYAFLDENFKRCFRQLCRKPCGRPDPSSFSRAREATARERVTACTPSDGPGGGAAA
# testSummary: Competitive radioligand binding assay, DOR
# measurementContext: ratio of Ki values
# cutoff 60 applies to Selectivity δ/μ; >= gives True, < gives False

O=C(N[C@H]1CC[C@@]2(O)[C@H]3Cc4ccc(O)c5c4[C@@]2(CCN3CC2CC2)[C@H]1O5)c1ccns1 : False
O=C(Cc1ccns1)N[C@@H]1CC[C@@]2(O)[C@H]3Cc4ccc(O)c5c4[C@@]2(CCN3CC2CC2)[C@H]1O5 : False
O=C(CCc1nccs1)N[C@H]1CC[C@@]2(O)[C@H]3Cc4ccc(O)c5c4[C@@]2(CCN3CC2CC2)[C@H]1O5 : False
O=C(N[C@@H]1CC[C@@]2(O)[C@H]3Cc4ccc(O)c5c4[C@@]2(CCN3CC2CC2)[C@H]1O5)c1cncs1 : True
O=C(N[C@H]1CC[C@@]2(O)[C@H]3Cc4ccc(O)c5c4[C@@]2(CCN3CC2CC2)[C@H]1O5)c1cncs1 : False

Has `O=C(Cc1nccs1)N[C@@H]1CC[C@@]2(O)[C@H]3Cc4ccc(O)c5c4[C@@]2(CCN3CC2CC2)[C@H]1O5` a recorded Selectivity δ/μ greater than or equal to 60?
True

Next up: `O=C(Cc1nccs1)N[C@H]1CC[C@@]2(O)[C@H]3Cc4ccc(O)c5c4[C@@]2(CCN3CC2CC2)[C@H]1O5`
False
